Molecular target: T1, CEA-derived … (SEQ ID NO: 71)-HLA-A*0201 complex (biotin on the C-terminal biotinylation tag (enzymatic, BirA))
T1 construct: also called soluble biotinylated HLA-A2-peptide complex; not shown: C-terminal biotinylation tag that replaces the transmembrane and cytoplasmic domains
Assay: Biacore SPR, pMHC immobilised
RESULT TYPE: koff

# BINDER, RESULT
data = [
    ("SEQ ID NO 36 (receptor) MAGHLPKPTLWAEPGSVITQGSPVTLRCQGGQETQEYRLYREKKTAPWITRIPQELVKKGQFPIPSITWEHAGRYRCYYGSDTSQWSASSDPLELVVTGVYIKPTLSAQPSPVVNSGGNVTLQCDSQVAFDGFILCKEGEDEHPQCLNSQPHARGSSRAIFSVGPVSPSRRWWYRCYAYPAWTPYEWSLPSDLLELDVDG", "≤ 2 s⁻¹"),
    ("SEQ ID NO 69 (receptor) MGHLPKPTLWAEPGSVITMDQPVTLRCQGGQETQEYRLYREKKTAPWITRIPQELVKKGQFPIPSITWEHAGRYRCYYGSDTSQWSASSDPLELVVTGVYIKPTLSAQPSPVVNSGGNVTLQCDSMFLVDGFILCKEGEDEHPQCLNSQPHARGSSRAIFSVGPVSPSRRWWYRCYAYMSWSPYEWSLPSDLLELDVDG", "≤ 2 s⁻¹"),
]
